System: MS2 coat protein
Test: apparent Kd, MS2 coat protein; higher = weaker binding; RNA-MaP array; FMN 200 µM where present
Conditions: designed as: ON switch for flavin mononucleotide; no ligand
Property: apparent Kd (nM)
Answers are plain numbers, in nM.

// solved cases for apparent Kd follow
UUUAUAAAUUAGAAGGCGUGAUAAAAUACAAUAAACAUGAGGAUCACCCAUGUGUACCCAUGUUAUGAGGAUAUAGUCAUAUAU ... 462
AUAUCUUACCAAGGAUAUUUAAGAUUUGUGUAGACAUGAGGAUCACCCAUGUGGCCUUAGUCACGGGAGAAGGUGGUUUGAUAU ... 878
UGUACUAUAAGGUUAAUUGUAUAUUGAGAAGGCAUUCACAUGAGGAUCACCCAUGUAACAUGGGAUGAGGAUAUCAAUUUGUAC ... 197
UACAAUCUAUCUGAGGAUAUCAUGAUUAUAACAUGAGGAUCACCCAUGUGCAGGAAAACUGCAUAUGAGAAGGCAGAUAGAUUGU ... 611

State the recorded apparent Kd for every item in the following list.
1. UCAUUUACCACAGGAUAUAUUCAUAUACAGUUGUUUGGCUCUUACAUGUUAGUAGAAGGGUGCAACAUGAGGAUCACCCAUGUA
2. GUAGCAUUGAGAGGAUAUCCAUACCGGAAACGGACAUGAGGAUCACCCAUGUGGCGAAAGCCAUGGGAGAAGGCUCUAUGUUAC
3. UGCAUCAAUGAAGGAUAUCUAUGUCCAACAUGAGGAUCACCCAUGUUGAGGAUUACCUAUGUGUAGGAGAAGGUCAAUAUAACU
4. AAGUGUGGAUGAGGAUAUCAGCUGUAACUGACGUCGACAUGAGGAUCACCCAUGUUGCUAAAGGGUGAGAAGGCAUUUGCGCAA
5. UUAACAUGAGGAUCACCCAUGUCGUGCAAGAUGAGUUCUGGUGAGGAUAUACAUGGUAAAGAACUGUAGAAGGCACUGGGUACA
6. UUAAUCUAUACAGGAUAUCCAUACGCUGCAUACGGAGAAGGGUAACAAUCAUGAGGACAUGAGGAUCACCCAUGUUUUGAGCAU

[298, 11.1, 6.67, 481, 290, 42.8]

---

Test system: MS2 coat protein
Experiment: apparent Kd, MS2 coat protein; higher = weaker binding; RNA-MaP array; FMN 200 µM where present
Settings: ligand present: flavin mononucleotide; designed as: OFF switch for flavin mononucleotide
Would you mind telling me the reported apparent Kd of each entry?
Lab note: write values as number then unit, every time.

// solved cases for apparent Kd follow
CCCAUGUCAGGAUAUCUAAGAGAGGGCCAGCCCUCUCCUCCGGAGAAGGGACAUGAGGAUCACCCAUGUAAAAC ... 25.5 nM
ACAUGAGGAUCACCCAUGUAUUACAUGGUUAAGUUUAUUAACAGAAGGCGAAAAUACCACUUUUUCGAGGAUAUGUUUUCUAUA ... 61.6 nM
GGGCUGUCAGGAUAUAGUUCGAGUUCGGAAAUGAGCUUGAGCUAGAAGGGACAUGAGGAUCACCCAUGUGGCCC ... 34.2 nM

State the recorded apparent Kd for every item in the following list.
1. UGCGCUGAGGGAGGAUAUGACAUGAGGAUCACCCAUGUGGUAGGUUUCUUGUCAGAAGGCCCGCAUGUACCGAAUUAGGUUCGU
2. GCUGCGUACGUAGGAUAUACAUGAGGAUCACCCAUGUAACUCGGACUCUAAGCGGGUGCGCGCAUGUAGAAGGACGGGCGAGCC

["18.3 nM", "57.2 nM"]

State the recorded apparent Kd for every item in the following list.
1. GGAUAGGACAGAGGAUAUACGUGCUAGAGAUACUAGCAAAAUUUCCUAACAUGAGGAUCACCCAUGUAGAAGGCUGUCCUAUCG
2. CGGCGGAAAGGAUAUGCAGAAAUAUCAAAAUGUGGGCCACGACAUGAGGAUCACCCAUGUAGAAGGUUCAGCCG

13.3 nM
12.7 nM

All values here come from the EternaBench riboswitch data.
